FYI, the data here is from patent US10300155B2.

Molecular target: Aβ fibrils (Homo sapiens)
Sequence (P05067 672-713 limits assumed): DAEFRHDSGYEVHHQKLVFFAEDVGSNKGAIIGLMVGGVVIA
Test: ThT competitive assay for Aβ fibrils (Table 2)
Type: binding
Parameters: made in house; host or cells: E. coli
Conditions: Aβ fibrils; average; read-out: EC50(nM) EC50 (avg)
Experimental: […] recombinant protein was produced in E. coli. Additional preparation was performed in a similar fashion to Example 115. […] The inhibitor that binds with highest affinity to Aβ fibrils has the lowest dissociation constant (Ki).
MEASURED PROPERTY: EC50 (nM)

{"columns": ["COMPOUND", "READOUT NUMBER"],
 "data": [
  ["COc1ccc(/C=C/c2ccco2)cc1 [TZ-34-24]", 2280],
  ["COc1ccc(/C=C/c2cccs2)cc1 [TZ-34-26]", 6660],
  ["COc1ccc2nc(/C=C/c3ccnc(OC)c3)ccc2c1 [TZ-36-28-2T]", 715],
  ["COc1ccc(/C=C/c2ccc(-c3cnc(C)s3)s2)cc1 [TZ-34-43]", 854]
]}

----------
Measured Biodistribution: Liver by item
Assay: Biodistribution in male Balb/C mice
Assay type: in vivo
Conditions: 5 min post injection, tail vein; mean ± SD, n = 4
MEASURED PROPERTY: Biodistribution: Liver (% ID/g)

{"columns": ["COMPOUND", "MEASURED PROPERTY", "RESULT UNITS", "READOUT NUMBER"],
 "data": [
  ["COc1ccc(NC(=O)c2ccc(/C=C/c3ccncc3)cc2)cc1 [[^11C]TZ-20-83]", "Biodistribution: Liver", "% ID/g", 37.98],
  ["COC(=O)c1ccc(/C=C/c2ccncc2)cc1 [[^11C]TZ-20-35]", "Biodistribution: Liver", "% ID/g", 4.25],
  ["O=C(Nc1ccc(OCCC[18F])cc1)c1ccc(/C=C/c2ccncc2)cc1 [[^18F]TZ-23-92]", "Biodistribution: Liver", "% ID/g", 52.44],
  ["O=C(Nc1ccc(OCC[18F])cc1)c1ccc(/C=C/c2ccncc2)cc1 [[^18F]TZ-23-88]", "Biodistribution: Liver", "% ID/g", 16.30]
]}

----------
Molecular target: PD Tissue
Experiment: Radioligand saturation binding, PD postmortem brain tissue
Details: brain tissue homogenate
pKd: −log10 of the molar value.
Listed below: pKd values for each entry.

{"columns": ["COMPOUND", "pKd"],
 "data": [
  ["COc1cc(/C=C/c2ccc3cc(OCCF)ccc3n2)ccn1 [[^18F]TZ-36-148]", 6.78],
  ["COc1ccc2nc(/C=C/c3ccnc(OC)c3)ccc2c1 [[^11C]TZ-36-28-2T]", 7.26]
]}

----------
Target: tau fibrils (Homo sapiens, UniProt P10636)
Sequence (P10636 560-692 limits assumed): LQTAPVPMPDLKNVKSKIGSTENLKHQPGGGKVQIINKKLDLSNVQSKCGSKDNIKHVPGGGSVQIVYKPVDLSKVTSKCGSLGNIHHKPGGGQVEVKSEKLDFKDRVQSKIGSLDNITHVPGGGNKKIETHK
Assay: ThT competitive assay for tau fibrils (Table 3)
Assay type: binding
Parameters: made in house; host or cells: E. coli
Conditions: average; read-out: Ki (nM) Tau (avg)
Protocol: Tau fibril recombinant protein was produced in E. coli. Additional preparation was performed in a similar fashion to Example 115.
So basically, if Ki comes in under 500 nM it's 1, and if it's 500 nM or more it's -1.

{"columns": ["SMILES STR", "ASSIGNED LABEL"],
 "data": [
  ["COc1ccc(/C=C/c2ccsc2)cc1", -1],
  ["COc1cc(/C=C/c2ccc3cc(O)ccc3n2)ccn1", 1],
  ["COc1ccc(/C=C/c2cccs2)cc1", -1],
  ["COc1ccc2nc(/C=C/c3ccnc(OC)c3)ccc2c1", 1]
]}

----------
Target: α-synuclein fibrils (Homo sapiens)
Construct: made in house; host or cells: E. coli BL21(DE3)RIL
Test: ThT competitive assay for α-synuclein fibrils (Table 1)
Type: binding
Settings: individual determinations; read-out: Ki (nM) α-syn
Method: Upon binding to amyloid fibrils, a peak at approximately 440 nm becomes dominant with the fluorescent emission maximum shifted to 480 nm. This is accompanied by a strong enhancement of the fluorescence. […] Once the ThT-α-synuclein saturation binding curve and dissociation constant (Kd) were determined the competitive assay for determining the binding affinity of various test compounds was conducted. […] The fluorescent intensity for each cell was measured by the fluorescence reader at λex and λem. […]

{"columns": ["MOLECULE", "Ki, nM"],
 "data": [
  ["COc1ccc2ccc(/C=C/c3ccncc3)nc2c1", 71.8],
  ["COC(=O)c1ccc(/C=C/C=C/c2ccncc2)cc1", 56],
  ["FC(F)(F)c1ccc(/C=C/c2ccncc2)cc1", 36.8],
  ["COc1ccc2nc(/C=C/c3cccs3)ccc2c1", 403],
  ["COc1ccc(/C=C/c2ncccn2)cc1", 2770],
  ["CN(C)c1ccc(/C=C/CN2c3ccccc3Oc3ccccc32)cc1", 3090],
  ["COc1cc(/C=C/c2ccc3cc(OC(C)C)ccc3n2)ccn1", 49],
  ["CN(C)c1ccc(/C=C/c2cnccn2)cc1", 698],
  ["COc1ccc(NC(=O)c2ccc(/C=C/c3ccncc3)cc2)cc1", 19.1],
  ["COc1ccc2ccc(/C=C/c3ccccc3)nc2c1", 666],
  ["COc1cccc2nc(/C=C/c3ccccc3)ccc12", 532],
  ["COc1ccc2nc(/C=C/c3ccncc3Cl)ccc2c1", 414],
  ["COc1ccc2nc(/C=C/c3cccnc3C)ccc2c1", 289],
  ["O=C(OCCF)c1ccc(/C=C/c2ccncc2)cc1", 96],
  ["CNC(=O)c1ccc(/C=C/c2ccncc2)cc1", 85.6],
  ["Brc1ccc2nc(/C=C/c3cnccn3)ccc2c1", 453],
  ["Fc1ccc(/C=C/c2cccs2)cc1", 1000],
  ["COc1ccc(C(=O)C2CCN(C(=O)c3ccc(/C=C/c4ccncc4)cc3)CC2)cc1", 184],
  ["COc1cccc(/C=C/c2cnccn2)c1", 117],
  ["Brc1ccc(/C=C/c2ccsc2)cc1", 319],
  ["COc1ccc2ccc(/C=C/c3cnccn3)nc2c1", 3180],
  ["O=[N+]([O-])c1ccc(/C=C/c2cccs2)cc1", 55],
  ["Fc1ccc(-c2ccc(-c3nc4cc(Br)ccc4o3)cc2C(F)(F)F)cn1", 1540],
  ["COc1ccc2nc(/C=C/c3ccccc3)ccc2c1", 196],
  ["COc1ccc2nc(/C=C/c3ccncc3)ccc2c1", 29.1],
  ["CN(C)c1ccc(/C=C/C=C/c2cccs2)cc1", 69],
  ["Fc1ccc2nc(/C=C/c3cnccn3)ccc2c1", 109],
  ["COC(=O)c1ccc(/C=C/c2ccncc2)cc1", 16.1],
  ["COc1cccc2ccc(/C=C/c3ccccc3)nc12", 614],
  ["O=[N+]([O-])c1ccc2nc(/C=C/c3cnccn3)ccc2c1", 926],
  ["COc1ccc(/C=C/c2cnccn2)cc1OC", 213],
  ["COc1cccc2nc(/C=C/c3ccncc3)ccc12", 96.3],
  ["O=C(NCCF)c1ccc(/C=C/c2ccncc2)cc1", 115],
  ["COC(=O)C(Cc1ccc(O)cc1)NC(=O)c1ccc(/C=C/c2ccncc2)cc1 (stereo not shown)", 523],
  ["O=[N+]([O-])c1ccc(/C=C/c2ccncc2)cc1", 52.8],
  ["COc1ccc2nc(/C=C/c3ccco3)ccc2c1", 316],
  ["COc1ccc(C2CCN(C(=O)c3ccc(/C=C/c4ccncc4)cc3)CC2)cc1", 2460],
  ["COc1cc(/C=C/c2cnccn2)nc2ccccc12", 3030],
  ["Fc1ccc(/C=C/c2ccsc2)cc1", 860],
  ["Ic1ccc(/C=C/c2ccsc2)cc1", 115],
  ["O=C(Nc1ccc(I)cc1)c1ccc(/C=C/c2ccncc2)cc1", 19.8],
  ["COc1ccc2nc(/C=C/c3ccccn3)ccc2c1", 193],
  ["COc1ccc2c(c1)Oc1cc([N+](=O)[O-])ccc1N2C/C=C/c1ccc(N(C)C)cc1", 467]
]}

----------
Test: Biodistribution in male Balb/C mice
Type: in vivo
Details: 5 min post injection, tail vein; mean ± SD, n = 4
Experimental: For the biodistribution studies, 100˜130 μCi of [^11C] […] All the tissue samples were collected in tared tubes and counted in an automated gamma counter (Beckman Gamma 8000 well counter) with standards, prepared by diluting the injectate. The counted tissues were then weighed, and the % ID/g was calculated (Table 4).
MEASURED PROPERTY: Biodistribution: Muscle (% ID/g)

{"columns": ["COMPOUND", "READOUT NUMBER"],
 "data": [
  ["O=C(Nc1ccc(OCCC[18F])cc1)c1ccc(/C=C/c2ccncc2)cc1 [[^18F]TZ-23-92]", 1.47],
  ["COc1ccc(NC(=O)c2ccc(/C=C/c3ccncc3)cc2)cc1 [[^11C]TZ-20-83]", 1.18],
  ["O=C(Nc1ccc(OCC[18F])cc1)c1ccc(/C=C/c2ccncc2)cc1 [[^18F]TZ-23-88]", 2.60],
  ["COC(=O)c1ccc(/C=C/c2ccncc2)cc1 [[^11C]TZ-20-35]", 4.06]
]}
